Collected EC50 values appear next to each entry.
- test_system: μ opioid receptor (Homo sapiens, UniProt P35372)
- Sequence (P35372 whole entry): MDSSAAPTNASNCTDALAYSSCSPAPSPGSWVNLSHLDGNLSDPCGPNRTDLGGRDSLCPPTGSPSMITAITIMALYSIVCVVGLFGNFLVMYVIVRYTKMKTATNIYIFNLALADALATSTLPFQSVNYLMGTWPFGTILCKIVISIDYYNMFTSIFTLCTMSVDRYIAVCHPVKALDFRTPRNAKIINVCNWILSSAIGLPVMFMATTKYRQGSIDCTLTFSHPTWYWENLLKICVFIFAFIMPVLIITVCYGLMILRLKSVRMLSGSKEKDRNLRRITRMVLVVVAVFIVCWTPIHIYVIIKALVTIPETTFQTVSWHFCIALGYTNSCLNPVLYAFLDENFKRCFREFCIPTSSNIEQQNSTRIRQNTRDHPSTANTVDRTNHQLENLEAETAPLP
- assay_explanation: FLIPR intracellular calcium signal test, HEK293-μ cells
- experimental_conditions: EC50 (activation) test, read-out: Mu receptor EC50
- Protocol: Fluorescence imaging plate reader FLIPR was used to detect changes of intracellular calcium signals. […] 3) Suspending the cells with 10-15 mL culture medium in each T150 cm^2 cell culture flask, centrifugating at 800 rpm for 5 minutes, and resuspending the cells with 10 mL culture medium, aspirating 1 mL cell resuspension to be counted with Vi-cell; […] 4) IC50 test: In FLIPR, successively placing 4× EC80 plate, cell plate, FLIPR tip, running the program and reading the fluorescence value. […]

# annotated cases, reported EC50 shown
compound: Cc1cc2c(cc1O)C1(C)CCCCCC(C2)C1N (stereo not drawn)
EC50: 10 to 100 µM

compound: CC12CCCCCC(Cc3cc(Br)c(O)cc31)C2N (stereo not drawn)
EC50: 10 to 100 µM

compound: COc1cc(O)cc2c1CC1CCCCCC2(C)C1N (stereo not drawn)
EC50: > 100 µM

Problem: Output measured EC50 for this item: CC12CCCCCC(Cc3ccc(O)c(F)c31)C2N (stereo not drawn)
Solution: 0.1 to 1 µM

Problem: Write down EC50 measured for item CCc1cc(O)cc2c1CC1CCCCCC2(C)C1N (stereo not drawn)
Solution: > 100 µM

Problem: Supply measured EC50 of CC(C)c1cc(O)cc2c1CC1CCCCCC2(C)C1N (stereo not drawn) in your reply.
Solution: > 100 µM

Problem: Provide one value: measured EC50 of CC12CCCCCC(Cc3c(F)cc(O)cc31)C2N (stereo not drawn)
Solution: ≤ 0.1 µM

Problem: Let me know recorded EC50 for C[C@@]12CCCCC[C@@H](Cc3c(F)cc(O)cc31)[C@@H]2N , thanks.
Solution: ≤ 0.1 µM

Problem: Please give the documented EC50 of Cc1cc(O)cc2c1CC1CCCCCC2(C)C1N (stereo not drawn)
Solution: > 100 µM

Problem: Please report the measured EC50 for CC12CCCCCC(Cc3c(Cl)cc(O)cc31)C2N (stereo not drawn)
Solution: 0.1 to 1 µM

====

This listing pairs compounds with measured pIC50.
- test_system: δ opioid receptor (Homo sapiens)
- Sequence (P41143 whole entry): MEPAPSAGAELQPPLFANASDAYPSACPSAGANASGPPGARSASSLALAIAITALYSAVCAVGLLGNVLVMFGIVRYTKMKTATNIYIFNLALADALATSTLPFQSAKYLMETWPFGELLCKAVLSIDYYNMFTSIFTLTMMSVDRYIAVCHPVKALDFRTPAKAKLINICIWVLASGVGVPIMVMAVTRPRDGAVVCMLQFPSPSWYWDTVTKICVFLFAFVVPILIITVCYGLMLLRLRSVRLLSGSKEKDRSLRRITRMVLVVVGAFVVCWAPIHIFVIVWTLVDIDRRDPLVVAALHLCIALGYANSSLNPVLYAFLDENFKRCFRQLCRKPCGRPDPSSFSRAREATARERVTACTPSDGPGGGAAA
- assay_explanation: FLIPR intracellular calcium signal test, HEK293-δ cells
- experimental_conditions: IC50 (inhibition) test against EC80 of positive agonist, read-out: Delt receptor IC50
pIC50: −log10 of the molar value. Where a name gives a salt, the structure may show the parent alone.

A selection of reference data follows.
compound: C[C@@]12CCCCC[C@@H](Cc3c(F)cc(O)cc31)[C@@H]2N
measurement: 5.00 to 6.00
--
compound: C[C@@]12CCOCC[C@@H](Cc3ccc(O)cc31)[C@@H]2N
measurement: 5.00 to 6.00
--
compound: CC12CCCCCC(Cc3ccc(O)cc31)C2N (stereo not shown) [Compound 2, reference compound]
measurement: < 4.00
--
compound: CC12CCCCCC(Cc3c(F)cc(O)cc31)C2N (stereo not shown)
measurement: 5.00 to 6.00
--
compound: Cc1cc(O)cc2c1CC1CCCCCC2(C)C1N (stereo not shown)
measurement: 5.00 to 6.00
--
compound: CC(C)CC12CCCCC(Cc3c(F)cc(O)cc31)C2N (stereo not shown)
measurement: < 4.00
--
compound: CC(C)c1cc(O)cc2c1CC1CCCCCC2(C)C1N (stereo not shown)
measurement: < 4.00
--
compound: CCCC12CCCCC(Cc3c(F)cc(O)cc31)C2N (stereo not shown)
measurement: 4.00 to 5.00

Problem: Output pIC50 of CC12CCCCCC(Cc3cc(O)c(O)cc31)C2N (stereo not shown)
Solution: < 4.00

Problem: Give the reported value of pIC50 for this record: CC12CCCCCC(Cc3cc(F)c(O)cc31)C2N (stereo not shown) [Hydrochloride of Compound 17]
Solution: < 4.00

// provenance: patent US10414718B2
